Every entry's value here was drawn from the Immune Epitope Database (IEDB).

# Assayed target: HLA-B*07:02
# Assay notes: IEDB peptide-MHC binding, purified MHC/competitive/fluorescence; filed as Kd, often an IC50 or EC50 that approximates it; bounds were set here for any values at or beyond the usual limits of such assays
# Study conditions: source organism: Shigella boydii CDC 3083-94
pKd: −log10 of the molar value.
Value type: pKd

Lookup: # return recorded pKd for input QEPGIFCAI
Found: ≤ 4.70

###

# Assayed target: HLA-A*11:01
# Assay notes: IEDB peptide-MHC binding, purified MHC/direct/fluorescence; filed as Kd, often an IC50 or EC50 that approximates it; bounds were set here for any values at or beyond the usual limits of such assays
# Study conditions: source organism: SARS-CoV1
Value type: pKd
Scale explanation: pKd corresponds to minus log10 of a concentration expressed in moles per litre.

Lookup: # return recorded pKd for entry ERSDKSYEH
Found: 4.77
